TARGET_OF_ASSAY: S1 Fc fusion protein (SARS-CoV-2, UniProt P0DTC2 14-685)
ASSAY_PROCEDURE: phage ELISA
Kindly supply the reported ELISA fold over background values for the records listed here.
Give the figure together with its unit, number first.

Study these solved cases before continuing.
Given the entry SARS-CoV-2 variant 1-35 (antibody, V domains shown) VH: EVQLLESGGGLVQPGGSLRLSCAASGFTFSNYAMSWVRQAPGKGLEWVSDISGSGGSTYYADSVKGRFTISRDNSKNTLYLQMNSLRAEDTAVYYCVKGTIPIFGVIRSAFDYWGQGTLVTVSS VL: QSALTQPASVSGSPGQSITISCTGTSSDVGSYSLVSWYQQHPGKAPKLMIYEGTKRPSGVSNRFSGSKSGNTASLTISGLQAEDEADYYCCSYAGSYSYVVFGGGTKLTVL , report its measured ELISA fold over background.
1.4 fold

Given the entry SARS-CoV-2 variant 1-23 (antibody, V domains shown) VH: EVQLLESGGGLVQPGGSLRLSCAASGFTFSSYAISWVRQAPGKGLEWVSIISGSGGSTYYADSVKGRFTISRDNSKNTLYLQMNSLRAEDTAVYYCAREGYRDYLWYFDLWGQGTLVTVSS VL: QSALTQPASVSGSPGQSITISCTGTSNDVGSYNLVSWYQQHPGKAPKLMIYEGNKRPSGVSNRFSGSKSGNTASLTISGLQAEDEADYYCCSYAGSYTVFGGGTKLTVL , report its measured ELISA fold over background.
1.6 fold

Okay, next one:
Given the entry SARS-CoV-2 variant 1-32 (antibody, V domains shown) VH: EVQLLESGGGLVQPGGSLRLSCAASGFTFSSYAMYWVRQAPGKGLEWVSAISGSGGSTFYADSVKGRFTISRDNSKNTLYLQMNSLRAEDTAVYYCTRPPYGDYGDYWGQGTLVTVSS VL: QSALTQPASVSGSPGQSITISCTGTSSDVGGYNLVSWYQQHPGKAPKLMIYEGNKRPSGVSNRFSGSKSGNTASLTISGLQAEDEADYYCCSYAGSSTFPVVFGGGTKLTVL , report its measured ELISA fold over background.
4 fold
